target: Epidermal growth factor receptor (Homo sapiens) (UniProt P00533); assay: Inhibition of recombinant human N-terminal GST/His6-tagged EGFR (H672 to A1210 residues) expressed in Sf9 insect cells at 1 uM using TRK-C-derived peptide as substrate by filter binding method relative to control
Sequence (P00533 whole entry, the tested form may be a part): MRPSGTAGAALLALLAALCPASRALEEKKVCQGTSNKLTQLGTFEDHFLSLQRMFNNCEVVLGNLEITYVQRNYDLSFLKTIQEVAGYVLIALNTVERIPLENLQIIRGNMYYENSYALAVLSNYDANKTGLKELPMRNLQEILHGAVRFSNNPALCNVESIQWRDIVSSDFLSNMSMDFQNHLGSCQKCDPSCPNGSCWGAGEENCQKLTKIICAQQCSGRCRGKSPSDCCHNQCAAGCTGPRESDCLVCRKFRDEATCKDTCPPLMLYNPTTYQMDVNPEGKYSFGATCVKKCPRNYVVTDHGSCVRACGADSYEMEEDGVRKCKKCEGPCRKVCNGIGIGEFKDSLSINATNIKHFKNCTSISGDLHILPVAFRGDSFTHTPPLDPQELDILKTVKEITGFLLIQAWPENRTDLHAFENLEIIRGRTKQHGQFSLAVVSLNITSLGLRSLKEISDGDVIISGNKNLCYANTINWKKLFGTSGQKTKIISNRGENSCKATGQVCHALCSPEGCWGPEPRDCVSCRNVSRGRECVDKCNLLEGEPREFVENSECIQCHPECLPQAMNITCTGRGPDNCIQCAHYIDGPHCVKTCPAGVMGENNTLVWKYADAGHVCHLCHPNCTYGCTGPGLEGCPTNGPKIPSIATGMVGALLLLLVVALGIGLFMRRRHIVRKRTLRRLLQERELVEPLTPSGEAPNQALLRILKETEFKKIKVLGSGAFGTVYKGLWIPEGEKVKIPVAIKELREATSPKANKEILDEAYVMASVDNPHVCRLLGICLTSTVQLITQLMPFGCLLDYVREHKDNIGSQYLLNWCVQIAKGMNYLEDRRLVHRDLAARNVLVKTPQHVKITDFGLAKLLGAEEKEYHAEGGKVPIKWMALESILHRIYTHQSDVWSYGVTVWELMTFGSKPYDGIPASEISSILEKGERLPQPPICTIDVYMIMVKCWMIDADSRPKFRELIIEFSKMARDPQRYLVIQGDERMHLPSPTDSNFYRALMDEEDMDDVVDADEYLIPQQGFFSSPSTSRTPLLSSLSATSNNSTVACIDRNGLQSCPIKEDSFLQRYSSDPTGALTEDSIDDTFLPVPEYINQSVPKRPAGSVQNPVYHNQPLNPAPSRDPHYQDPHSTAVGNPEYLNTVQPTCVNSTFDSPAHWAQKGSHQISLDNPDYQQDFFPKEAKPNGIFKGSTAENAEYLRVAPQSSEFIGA

# RECORD SMILES, TARGET DESC, inhibition
measured = [
    ("CS(=O)(=O)N1CCN(Cc2nc3c(N4CCOCC4)nc(-c4cnc(N)nc4)c(Cl)n3n2)CC1", "Epidermal growth factor receptor (Homo sapiens) (UniProt P00533)", "< 25%"),
    ("CS(=O)(=O)N1CCN(Cc2cc3c(N4CCOCC4)nc(-c4cnc(N)nc4)cn3n2)CC1", "Epidermal growth factor receptor (Homo sapiens) (UniProt P00533)", "< 25%"),
    ("CS(=O)(=O)N1CCN(Cc2nc3c(N4CCOCC4)nc(-c4cnc(N)nc4)cn3n2)CC1", "Epidermal growth factor receptor (Homo sapiens) (UniProt P00533)", "< 25%"),
    ("CS(=O)(=O)N1CCN(Cc2cn3nc(-c4cnc(N)nc4)nc(N4CCOCC4)c3n2)CC1", "Epidermal growth factor receptor (Homo sapiens) (UniProt P00533)", "< 25%"),
]

###

assay: Cmax in BALB-C mouse at 10 mg/kg, po by LC-MS/MS analysis; format: ADME, organism-based; parameters: dose 10 mg/kg, route oral; details: in vivo
PROPERTY NAME: Cmax (ng/mL)

# RECORD SMILES, PROPERTY NAME, NUMERIC RESULT
data = [
    ("CS(=O)(=O)N1CCN(Cc2cc3c(N4CCOCC4)nc(-c4cnc(N)nc4)c(Cl)n3n2)CC1", "Cmax", 1370),
    ("CS(=O)(=O)N1CCN(Cc2nc3c(N4CCOCC4)nc(-c4cnc(N)nc4)cn3n2)CC1", "Cmax", 674),
]

###

assay: Stability in human liver microsomes assessed as parent compound remaining at 0.5 uM after 30 mins by LC-MS/MS analysis; assay type: ADME, microsome; conditions: read-out: Stability

# RECORD SMILES, remaining at 0.5 h, 0.5 µM [%]
records = [
    ("CS(=O)(=O)N1CCN(Cc2nc3c(N4CCOCC4)nc(-c4cnc(N)nc4)cn3n2)CC1", 99),
    ("CS(=O)(=O)N1CCN(Cc2cn3cc(-c4cnc(N)nc4)nc(N4CCOCC4)c3n2)CC1", 100),
    ("CS(=O)(=O)N1CCN(Cc2cn3nc(-c4cnc(N)nc4)nc(N4CCOCC4)c3n2)CC1", 95),
    ("CS(=O)(=O)N1CCN(Cc2cc3c(N4CCOCC4)nc(-c4cnc(N)nc4)c(Cl)n3n2)CC1", 100),
    ("CS(=O)(=O)N1CCN(Cc2cc3c(N4CCOCC4)nc(-c4cnc(N)nc4)cn3n2)CC1", 97),
    ("CS(=O)(=O)N1CCN(Cc2nc3c(N4CCOCC4)nc(-c4cnc(N)nc4)c(Cl)n3n2)CC1", 97),
]

###

Reported AUC(0-inf) by item:
assay: AUC (infinity) in BALB-C mouse at 5 mg/kg, iv by LC-MS/MS analysis; type: ADME, organism-based; design: dose 5 mg/kg, time infinity, route intravenous; conditions: in vivo

# RECORD SMILES, AUC(0-inf) (ng·h/mL)
data = [
    ("CS(=O)(=O)N1CCN(Cc2nc3c(N4CCOCC4)nc(-c4cnc(N)nc4)cn3n2)CC1", 2660),
    ("CS(=O)(=O)N1CCN(Cc2cc3c(N4CCOCC4)nc(-c4cnc(N)nc4)c(Cl)n3n2)CC1", 8100),
    ("CS(=O)(=O)N1CCN(Cc2nc3c(N4CCOCC4)nc(-c4cnc(N)nc4)c(Cl)n3n2)CC1", 7730),
]

###

experiment: Stability in mouse liver microsomes assessed as parent compound remaining at 0.5 uM after 30 mins by LC-MS/MS analysis; assay type: ADME, microsome; details: read-out: Stability
Reported remaining at 0.5 h, 0.5 µM by item:

# RECORD SMILES, UNITS TEXT, remaining at 0.5 h, 0.5 µM
data = [
    ("CS(=O)(=O)N1CCN(Cc2cc3c(N4CCOCC4)nc(-c4cnc(N)nc4)c(Cl)n3n2)CC1", "%", 100),
    ("CS(=O)(=O)N1CCN(Cc2cn3nc(-c4cnc(N)nc4)nc(N4CCOCC4)c3n2)CC1", "%", 100),
    ("CS(=O)(=O)N1CCN(Cc2cn3cc(-c4cnc(N)nc4)nc(N4CCOCC4)c3n2)CC1", "%", 100),
    ("CS(=O)(=O)N1CCN(Cc2nc3c(N4CCOCC4)nc(-c4cnc(N)nc4)cn3n2)CC1", "%", 100),
    ("CS(=O)(=O)N1CCN(Cc2nc3c(N4CCOCC4)nc(-c4cnc(N)nc4)c(Cl)n3n2)CC1", "%", 96),
    ("CS(=O)(=O)N1CCN(Cc2cc3c(N4CCOCC4)nc(-c4cnc(N)nc4)cn3n2)CC1", "%", 100),
]

###

test: Kinetic solubility of the compound in phosphate buffered saline at pH 7.4 at 1 to 2 mg measured after 24 hrs by HPLC analysis; format: physicochemical; settings: read-out: Kinetic_solubility
PROPERTY NAME: solubility kinetic at 24 h (µM)

# RECORD SMILES, NUMERIC RESULT
rows = [
    ("CS(=O)(=O)N1CCN(Cc2cn3cc(-c4cnc(N)nc4)nc(N4CCOCC4)c3n2)CC1", 50),
    ("CS(=O)(=O)N1CCN(Cc2cn3nc(-c4cnc(N)nc4)nc(N4CCOCC4)c3n2)CC1", 10),
    ("CS(=O)(=O)N1CCN(Cc2nc3c(N4CCOCC4)nc(-c4cnc(N)nc4)cn3n2)CC1", 100),
    ("CS(=O)(=O)N1CCN(Cc2cc3c(N4CCOCC4)nc(-c4cnc(N)nc4)cn3n2)CC1", 10),
    ("CS(=O)(=O)N1CCN(Cc2cc3c(N4CCOCC4)nc(-c4cnc(N)nc4)c(Cl)n3n2)CC1", 100),
    ("CS(=O)(=O)N1CCN(Cc2nc3c(N4CCOCC4)nc(-c4cnc(N)nc4)c(Cl)n3n2)CC1", 100),
]

###

target: Phosphatidylinositol 4,5-bisphosphate 3-kinase catalytic subunit gamma isoform (Homo sapiens); experiment: Inhibition of recombinant full-length human N-terminal His6-tagged p110gamma expressed in baculovirus infected Sf21 insect cells using PIP2 as substrate by HTRF assay; details: read-out: Ki(app)
Sequence (P48736 whole entry, canonical isoform): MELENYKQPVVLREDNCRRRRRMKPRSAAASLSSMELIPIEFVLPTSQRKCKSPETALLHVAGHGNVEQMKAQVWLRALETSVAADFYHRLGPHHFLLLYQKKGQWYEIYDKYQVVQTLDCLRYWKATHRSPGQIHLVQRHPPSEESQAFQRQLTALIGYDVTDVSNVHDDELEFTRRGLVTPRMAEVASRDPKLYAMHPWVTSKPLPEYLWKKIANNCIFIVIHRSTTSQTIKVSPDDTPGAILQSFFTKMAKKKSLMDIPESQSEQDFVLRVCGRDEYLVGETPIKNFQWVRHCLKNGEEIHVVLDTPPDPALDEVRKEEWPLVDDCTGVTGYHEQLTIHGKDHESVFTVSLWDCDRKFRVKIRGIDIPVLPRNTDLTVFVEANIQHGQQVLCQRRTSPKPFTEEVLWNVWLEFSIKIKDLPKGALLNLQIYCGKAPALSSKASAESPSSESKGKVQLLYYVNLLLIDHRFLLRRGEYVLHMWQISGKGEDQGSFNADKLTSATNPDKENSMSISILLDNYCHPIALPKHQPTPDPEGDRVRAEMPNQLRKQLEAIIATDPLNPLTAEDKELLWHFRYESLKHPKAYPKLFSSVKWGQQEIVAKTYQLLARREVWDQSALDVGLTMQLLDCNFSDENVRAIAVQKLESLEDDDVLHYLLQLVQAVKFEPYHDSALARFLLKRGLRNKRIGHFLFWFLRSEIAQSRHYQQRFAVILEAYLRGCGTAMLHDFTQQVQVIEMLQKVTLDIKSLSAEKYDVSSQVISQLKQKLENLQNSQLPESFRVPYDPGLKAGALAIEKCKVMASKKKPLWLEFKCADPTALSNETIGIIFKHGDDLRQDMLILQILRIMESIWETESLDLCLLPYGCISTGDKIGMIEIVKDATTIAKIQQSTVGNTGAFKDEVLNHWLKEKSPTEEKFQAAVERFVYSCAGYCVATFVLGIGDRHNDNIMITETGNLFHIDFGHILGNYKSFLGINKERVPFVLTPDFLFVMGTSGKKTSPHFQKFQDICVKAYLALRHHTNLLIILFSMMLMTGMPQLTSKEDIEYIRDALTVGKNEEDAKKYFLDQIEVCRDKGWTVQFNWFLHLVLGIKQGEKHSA
PROPERTY NAME: Ki

# RECORD SMILES, PROPERTY NAME, RESULT
data = [
    ("CS(=O)(=O)N1CCN(Cc2nc3c(N4CCOCC4)nc(-c4cnc(N)nc4)c(Cl)n3n2)CC1", "Ki", "42.4 nM"),
    ("CS(=O)(=O)N1CCN(Cc2cc3c(N4CCOCC4)nc(-c4cnc(N)nc4)c(Cl)n3n2)CC1", "Ki", "16.7 nM"),
    ("CS(=O)(=O)N1CCN(Cc2cn3nc(-c4cnc(N)nc4)nc(N4CCOCC4)c3n2)CC1", "Ki", "40.6 nM"),
    ("CS(=O)(=O)N1CCN(Cc2cc3c(N4CCOCC4)nc(-c4cnc(N)nc4)cn3n2)CC1", "Ki", "49.1 nM"),
]

###

test: Half-life in BALB-C mouse at 3 mg/kg, iv by LC-MS/MS analysis; type: ADME, organism-based; details: in vivo
PROPERTY NAME: half-life

# RECORD SMILES, PROPERTY NAME, RESULT
rows = [
    ("CS(=O)(=O)N1CCN(Cc2cc3c(N4CCOCC4)nc(-c4cnc(N)nc4)cn3n2)CC1", "half-life", "30.6 min"),
]
